Origin of values: ChEMBL document CHEMBL4627271

SYSTEM: Cholinesterase (Canis lupus familiaris)
Sequence (P32750 whole entry): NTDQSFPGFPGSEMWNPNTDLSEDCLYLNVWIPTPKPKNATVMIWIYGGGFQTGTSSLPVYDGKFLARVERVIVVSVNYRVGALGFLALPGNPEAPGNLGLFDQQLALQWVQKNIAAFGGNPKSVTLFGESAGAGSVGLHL
ASSAY OVERVIEW: Inhibition of dog serum BChE using butrylthiocholine iodide as substrate by spectrophotometry based Ellman's method
QUANTITY KIND: IC50

Illustrative cases are given below, each with its answer.
COc1ccc(CC(=O)Nc2ncc(-c3ccc(OCCCCCN4CCCC4)cc3)s2)cc1OC ... 9.85 µM
COc1ccc(CC(=O)Nc2ncc(-c3ccc(OCCCCN4CCCCC4)cc3)s2)cc1OC ... 49.2 µM
COc1ccc(CC(=O)Nc2ncc(-c3ccc(OCCCN4CCCC4)cc3)s2)cc1OC ... 6.89 µM

Now look at this one.
# input State the recorded IC50 for this entry: C/C=C1\[C@H]2C=C(C)C[C@]1(N)c1ccc(=O)[nH]c1C2
# output > 10000 µM
